TEST SUMMARY: self-splicing fitness, log relative to wild type (ln ratio); higher = more splicing; Tetrahymena group I intron in knt gene, E. coli kanamycin selection, DiMSum; sequences stand for … in CUCUCU…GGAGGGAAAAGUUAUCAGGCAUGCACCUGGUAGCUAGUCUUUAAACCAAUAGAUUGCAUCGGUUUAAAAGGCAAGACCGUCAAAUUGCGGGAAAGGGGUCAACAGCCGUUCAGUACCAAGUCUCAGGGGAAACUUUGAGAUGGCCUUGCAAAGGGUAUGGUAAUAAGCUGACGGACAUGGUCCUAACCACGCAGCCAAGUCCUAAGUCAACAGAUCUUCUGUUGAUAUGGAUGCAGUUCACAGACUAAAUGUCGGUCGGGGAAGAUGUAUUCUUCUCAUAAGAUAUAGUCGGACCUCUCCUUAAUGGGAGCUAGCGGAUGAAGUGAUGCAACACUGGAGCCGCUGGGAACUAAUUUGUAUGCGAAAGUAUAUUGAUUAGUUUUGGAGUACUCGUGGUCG;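 note: selection with 25 µg/mL kanamycin versus none on LB agar overnight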
REPORTED CONDITIONS: 37 °C
MEASUREMENT TYPE: self-splicing fitness (ln)
I'd appreciate a reply containing only the number, no unit.

Would you please look over these solved cases?
>>> experimental_result("UGUGAGCAAUAUUACGCCAG")
-2.01
>>> experimental_result("AUAAAGCAAUAUUACGGGGU")
-1.99

Lab note: next sequence to report on.
Qu. Look up self-splicing fitness (ln): CCUAAGCAAUAUUACGGCGA
Ans. -1.95
